target: T1, human MSLN-R3 protein (Met487-Ser606 of NCBI AAH09272.1) expressed on HEK293T-hMSLN-R3 cells (human, UniProt Q13421 487-606); experiment: FACS on HEK293T-hMSLN-R3 cells;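 further: flow cytometry binding of test chimeric antibodies to cells after 2 h incubation on ice, with values derived from the mean fluorescence intensity of the cells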
T1 construct: also called Region3
T1 sequence (Q13421 495-614): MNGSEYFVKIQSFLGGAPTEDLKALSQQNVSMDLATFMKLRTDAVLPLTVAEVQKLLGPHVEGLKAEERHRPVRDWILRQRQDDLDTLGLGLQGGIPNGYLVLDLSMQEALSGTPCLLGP
I'd appreciate it if you could supply EC50 values for the items below.
Give bare numbers, in nM.

Some solved cases for reference:
binder	units label	EC50
S009-F7.26.15 (antibody, human IgG1, kappa, V domains shown, human-murine chimeric antibody, human IgG1/kappa constant regions) VH: DVQLQESGPGLVKPSQTVFLTCTVTGISITTGNYRWSWIRQFPGNKLEWIGYIYYTGFITYNPSLTSRTTITRDTPKNQFFLEMKSLTAEDTATYYCARDDYDYDVFAYWGQGTLVTVSA VL: DIQMTQSPASLSASVGETVTITCRASGNIHNYLAWYHQKQGKSPQFLVYKAKTLADGVPSRFSGSGSGTQYSLKINRLQPEDFGSYYCQHFLSIPLTFGAGTKLELKR	nM	0.09
S009-F7.33.24 (antibody, human IgG1, kappa, V domains shown, human-murine chimeric antibody, human IgG1/kappa constant regions) VH: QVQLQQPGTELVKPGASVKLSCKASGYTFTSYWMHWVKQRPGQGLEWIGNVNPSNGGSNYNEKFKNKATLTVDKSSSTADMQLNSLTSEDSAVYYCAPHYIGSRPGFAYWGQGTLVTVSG VL: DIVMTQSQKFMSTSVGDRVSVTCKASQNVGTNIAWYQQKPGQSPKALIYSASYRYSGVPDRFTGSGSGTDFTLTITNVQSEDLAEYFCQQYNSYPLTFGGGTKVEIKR	nM	0.06

Value lookup for EC50; key = S009-F7.67.12 (antibody, human IgG1, kappa, V domains shown, human-murine chimeric antibody, human IgG1/kappa constant regions) VH: QVQLQQPGTELVKPGASVRLSCRASGYSFSSYWMHWVKQRPGQGLEWLGNINPTTGDINYNEKFRNRATLAVDKSSTTAYLQLTSLTSEDSAVYFCVRHDGFLWGQGTTLTVSS VL: DIQMTQSPASLSASVGETVTITCRASENIYSYLAWYQQKQGKSPQLLVYYAKTLAEGVSSRFSGSGSGTQFSLKINSLQPEDFGTYYCQHQFGTPRTFGGGTKLEIRR
0.14
